Target: ErbB4 on neonatal rat cardiomyocytes (rat) (UniProt Q62956)
Sequence (Q62956 26-1308): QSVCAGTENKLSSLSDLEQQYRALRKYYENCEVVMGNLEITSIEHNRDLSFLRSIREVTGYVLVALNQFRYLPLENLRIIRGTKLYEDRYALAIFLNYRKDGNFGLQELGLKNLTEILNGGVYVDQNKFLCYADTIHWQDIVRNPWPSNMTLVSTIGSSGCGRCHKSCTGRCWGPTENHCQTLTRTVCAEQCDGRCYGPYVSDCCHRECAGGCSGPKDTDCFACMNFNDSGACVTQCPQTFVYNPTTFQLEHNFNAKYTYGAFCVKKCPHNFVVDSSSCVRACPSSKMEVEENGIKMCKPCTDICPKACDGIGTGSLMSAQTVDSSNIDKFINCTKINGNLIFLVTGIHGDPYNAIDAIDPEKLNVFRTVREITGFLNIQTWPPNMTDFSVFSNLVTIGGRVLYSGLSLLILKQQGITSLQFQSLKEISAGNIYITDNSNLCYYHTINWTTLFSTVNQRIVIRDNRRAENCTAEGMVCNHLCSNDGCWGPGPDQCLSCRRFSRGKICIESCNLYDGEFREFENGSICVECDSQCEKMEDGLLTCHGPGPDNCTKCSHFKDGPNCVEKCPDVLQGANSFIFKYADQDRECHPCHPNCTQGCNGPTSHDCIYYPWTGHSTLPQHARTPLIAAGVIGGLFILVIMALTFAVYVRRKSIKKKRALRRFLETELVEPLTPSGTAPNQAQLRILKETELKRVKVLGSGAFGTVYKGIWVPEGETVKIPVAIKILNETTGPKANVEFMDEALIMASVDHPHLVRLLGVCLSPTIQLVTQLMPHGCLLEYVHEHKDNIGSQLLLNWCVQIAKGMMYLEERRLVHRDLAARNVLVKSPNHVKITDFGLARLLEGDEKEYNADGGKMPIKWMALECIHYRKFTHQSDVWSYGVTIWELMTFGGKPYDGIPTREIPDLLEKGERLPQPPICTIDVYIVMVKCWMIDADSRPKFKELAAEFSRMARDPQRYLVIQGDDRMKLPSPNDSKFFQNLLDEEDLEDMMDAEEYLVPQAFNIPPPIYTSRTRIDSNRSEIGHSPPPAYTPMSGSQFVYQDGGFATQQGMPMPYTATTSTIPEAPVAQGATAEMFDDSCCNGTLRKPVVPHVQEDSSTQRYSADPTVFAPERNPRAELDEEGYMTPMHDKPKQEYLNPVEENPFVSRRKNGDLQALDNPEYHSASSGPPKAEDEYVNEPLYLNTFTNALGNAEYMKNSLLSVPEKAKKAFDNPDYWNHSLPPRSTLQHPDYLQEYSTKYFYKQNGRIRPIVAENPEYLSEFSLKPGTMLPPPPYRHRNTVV
Test: cell-based or functional assay
endpoint_name: Cardiomyocyte (CM) (ErbB4) Avg EC50 (nM)

>>> assay_result("huNRG1(S177-F229)(NRGE1C) 6xHis (ligand) SHLVKCGEKHKSFCVNGGECFMIEGPSNPSRYLCKCPNEFTGDRCQEDFMASFGGGGEGGGGAGGGGHHHHHH")
1.44
>>> assay_result("huNRG1(S177-Q237)(NRGE1P)::GG::huFcSEFL2 (Pb) (Fc fusion) SHLVKCAESHKSFCVNGGECFMIEGPSNPSRYLCKCPNEFTGDRCQDFFMASFYKAEELYQGGDKTHTCPPCPAPELLGGPSVFLFPPKPKDTLMISRTPEVTCVVVDVSHEDPEVKFNWYVDGVEVHNAKTKPCEEQYGSTYRCVSVLTVLHQDWLNGKEYKCKVSNKALPAPIEKTISKAKGQPREPQVYTLPPSREEMTKNQVSLTCLVKGFYPSDIAVEWESNGQPENNYKTTPPVLDSDGSFFLYSKLTVDKSRWQQGNVFSCSVMHEALHNHYTQKSLSLSPGK")
2.22
>>> assay_result("huNRG1(S177-Q237)(1D10)::GG::huFcSEFL2 (Pb) (Fc fusion) SHLVKCAERDKTFCVNGGECYMIEDLSIPSRYLCKCPNEFTGDRCQKDFMASFYKAEELYQGGDKTHTCPPCPAPELLGGPSVFLFPPKPKDTLMISRTPEVTCVVVDVSHEDPEVKFNWYVDGVEVHNAKTKPCEEQYGSTYRCVSVLTVLHQDWLNGKEYKCKVSNKALPAPIEKTISKAKGQPREPQVYTLPPSREEMTKNQVSLTCLVKGFYPSDIAVEWESNGQPENNYKTTPPVLDSDGSFFLYSKLTVDKSRWQQGNVFSCSVMHEALHNHYTQKSLSLSPGK")
0.741
>>> assay_result("huNRG1(S177-F229)(NRGE1C) (E47S_D48T_F49R_M50V) 6xHis (ligand) SHLVKCGEKHKSFCVNGGECFMIEGPSNPSRYLCKCPNEFTGDRCQSTRVASFGGGGEGGGGAGGGGHHHHHH")
0.58
>>> assay_result("huNRG1(S177-Q237)(3G3)::GG::huFcSEFL2 (Pb) (Fc fusion) SHLVKCGEREKTFCVNGGECFMIEHLSIPSRFLCKCPNEFTGDRCQEDFMASFYKAEELYQGGDKTHTCPPCPAPELLGGPSVFLFPPKPKDTLMISRTPEVTCVVVDVSHEDPEVKFNWYVDGVEVHNAKTKPCEEQYGSTYRCVSVLTVLHQDWLNGKEYKCKVSNKALPAPIEKTISKAKGQPREPQVYTLPPSREEMTKNQVSLTCLVKGFYPSDIAVEWESNGQPENNYKTTPPVLDSDGSFFLYSKLTVDKSRWQQGNVFSCSVMHEALHNHYTQKSLSLSPGK")
1.84
